The values you see were collected from patent US20260226022A1.

# test: In vivo pharmacokinetic determination in mice (intravenous bolus and oral)
# Design: species or system C57BL/6 mice
# condition-description: male, mouse, plasma; C57BL/6 mice, intravenous, 1 mg/kg
property-name: AUC (ng·h/mL)
Give just the number in ng·h/mL; leave the unit off.

Inquiry: Name the reported AUC value associated with the compound C[C@@H](COCCC(=O)N1CCN(c2ncc(C(F)(F)F)cn2)CC1)Nc1cn[nH]c(=O)c1C(F)(F)F
Reply text: 288

---

# test: In vivo pharmacokinetic determination in rats (intravenous bolus and oral)
# Set-up: species or system SD rats
# condition-description: male, rat, plasma; SD rats, intravenous, 1 mg/kg
property-name: AUC

Inquiry: Endpoint output: AUC of C[C@@H](COCCC(=O)N1CCN(c2ncc(C(F)(F)F)cn2)CC1)Nc1cn[nH]c(=O)c1C(F)(F)F . Value?
Reply text: 193 ng·h/mL

---

# test: In vivo pharmacokinetic determination in mice (intravenous bolus and oral)
# Design: species or system C57BL/6 mice
# condition-description: male, mouse, plasma; C57BL/6 mice, intravenous, 1 mg/kg
property-name: clearance (mL/min/kg)
Express your answer in mL/min/kg, writing the number without its unit.

Inquiry: I am curious: what clearance value has been reported for C[C@@H](COCCC(=O)N1CCN(c2ncc(C(F)(F)F)cn2)CC1)Nc1cn[nH]c(=O)c1C(F)(F)F ?
Reply text: 56.7

---

# test: In vivo pharmacokinetic determination in rats (intravenous bolus and oral)
# Parameters: species or system SD rats
# condition-description: male, rat, plasma; SD rats, intravenous, 1 mg/kg; read-out: Vss
# Experimental: To study the in vivo plasma pharmacokinetic behavior of the compounds of the present application after single intravenous bolus injection and oral administration, using male C57BL/6 mice or SD male rats as tested animals. […] 2) The supernatant after treatment was diluted with water, and then analyzed for the concentration of the tested compounds by LC/MS/MS. […]
property-name: Vd (L/kg)
Express it in L/kg; write the number only.

Inquiry: Using the record for C[C@@H](COCCC(=O)N1CCN(c2ncc(C(F)(F)F)cn2)CC1)Nc1cn[nH]c(=O)c1C(F)(F)F , report its Vd.
Reply text: 1.2

---

# test: In vivo pharmacokinetic determination in rats (intravenous bolus and oral)
# Set-up: species or system SD rats
# condition-description: male, rat, plasma; SD rats, intravenous, 1 mg/kg
property-name: half-life (min)
Field format: number, assumed min, no unit text.

Inquiry: Reported half-life for C[C@@H](COCCC(=O)N1CCN(c2ncc(C(F)(F)F)cn2)CC1)Nc1cn[nH]c(=O)c1C(F)(F)F : what is it?
Reply text: 12

---

# test: In vivo pharmacokinetic determination in rats (intravenous bolus and oral)
# Design: species or system SD rats
# condition-description: male, rat, plasma; SD rats, oral, 5 mg/kg
property-name: AUC (ng·h/mL)
Numbers only here, please. The scale is ng·h/mL.

Inquiry: Returns the measured AUC for the input molecule. Input: C[C@@H](COCCC(=O)N1CCN(c2ncc(C(F)(F)F)cn2)CC1)Nc1cn[nH]c(=O)c1C(F)(F)F [RBN-2397]
Reply text: 264

---

# test: In vivo pharmacokinetic determination in rats (intravenous bolus and oral)
# Design: species or system SD rats
# condition-description: male, rat, plasma; SD rats, intravenous, 1 mg/kg
property-name: clearance (mL/min/kg)
The answer is to be given in mL/min/kg; state only the numeric part.

Inquiry: Which clearance is reported for this molecule? C[C@@H](COCCC(=O)N1CCN(c2ncc(C(F)(F)F)cn2)CC1)Nc1cn[nH]c(=O)c1C(F)(F)F [RBN-2397]
Reply text: 85

---

# test: In vivo pharmacokinetic determination in mice (intravenous bolus and oral)
# Parameters: species or system C57BL/6 mice
# condition-description: male, mouse, plasma; C57BL/6 mice, intravenous, 1 mg/kg; read-out: Vss
property-name: Vd (L/kg)
Only the number, expressed in L/kg, is required.

Inquiry: What value of Vd has been recorded for this entry: C[C@@H](COCCC(=O)N1CCN(c2ncc(C(F)(F)F)cn2)CC1)Nc1cn[nH]c(=O)c1C(F)(F)F [RBN-2397]
Reply text: 0.6
